Test system: HOP-92 NSCLC
Assay: NCI-60 one-dose screen, 48 h
Conditions: 10 µM unless noted
About 83,000 compounds went through this panel and 20% of them were active in at least one assay; those are over-represented in the sample as a whole. The source made the active and inactive calls. Rule for the calls: active = growth percent below 10; inactive = the rest.
Your response should consist of one outcome taken from class 1 for active, class 0 for inactive

Each compound tested received a call. Report the one for CCNC(=O)N1CCc2c(Cl)c3c(c(OC)c2[C@@H]1[C@H]1OCc2c1ccc(OC)c2OC)OCCO3 .
class 0

Each compound tested received a call. Report the one for O=c1[nH]c2cc(Cl)c(Cl)cc2n2cc3ncccc3c12 .
class 0

Each compound tested received a call. Report the one for CCc1cccc(Cl)c1 .
class 0

Each compound tested received a call. Report the one for O=C1/C(=C\c2cccn2Cc2ccccc2)c2ccccc2N1c1c(Cl)cccc1Cl .
class 1

Each compound tested received a call. Report the one for CCOC(=O)c1nn(C2CCCCO2)c2ccc(NC(=O)CN3CCOCC3)cc12 (stereo unspecified) .
class 0

Each compound tested received a call. Report the one for CC1Cc2ccc(OCCN(C)C)cc2C1=O (stereo unspecified) .
class 0

Each compound tested received a call. Report the one for Cc1cc(-c2ccc(N=Nc3c(S(=O)(=O)O)cc4cc(S(=O)(=O)O)cc(N)c4c3O)c(C)c2)ccc1N=Nc1cc(S(=O)(=O)O)c2ccccc2c1O .
class 0

Each compound tested received a call. Report the one for C=C(CC(=O)OC)C(C)=O .
class 0

Each compound tested received a call. Report the one for COC(=O)c1cc2c(=O)[nH]cc3c2c(n1)CCC3 .
class 0

Each compound tested received a call. Report the one for O=[N+]([O-])c1cccc(N=NNc2cccc([N+](=O)[O-])c2)c1 .
class 0

Each compound tested received a call. Report the one for CCn1cc(-c2cc(-c3ccc(Cl)cc3)nc(N)n2)c(-c2ccc(Br)cc2)n1 .
class 0
